Data origin, for the record: patent US6020370A

Target: α2 δ subunit of a calcium channel (Sus scrofa)
Construct: derived from porcine brain tissue
Sequence (A0A287BIN3 entry or part of it): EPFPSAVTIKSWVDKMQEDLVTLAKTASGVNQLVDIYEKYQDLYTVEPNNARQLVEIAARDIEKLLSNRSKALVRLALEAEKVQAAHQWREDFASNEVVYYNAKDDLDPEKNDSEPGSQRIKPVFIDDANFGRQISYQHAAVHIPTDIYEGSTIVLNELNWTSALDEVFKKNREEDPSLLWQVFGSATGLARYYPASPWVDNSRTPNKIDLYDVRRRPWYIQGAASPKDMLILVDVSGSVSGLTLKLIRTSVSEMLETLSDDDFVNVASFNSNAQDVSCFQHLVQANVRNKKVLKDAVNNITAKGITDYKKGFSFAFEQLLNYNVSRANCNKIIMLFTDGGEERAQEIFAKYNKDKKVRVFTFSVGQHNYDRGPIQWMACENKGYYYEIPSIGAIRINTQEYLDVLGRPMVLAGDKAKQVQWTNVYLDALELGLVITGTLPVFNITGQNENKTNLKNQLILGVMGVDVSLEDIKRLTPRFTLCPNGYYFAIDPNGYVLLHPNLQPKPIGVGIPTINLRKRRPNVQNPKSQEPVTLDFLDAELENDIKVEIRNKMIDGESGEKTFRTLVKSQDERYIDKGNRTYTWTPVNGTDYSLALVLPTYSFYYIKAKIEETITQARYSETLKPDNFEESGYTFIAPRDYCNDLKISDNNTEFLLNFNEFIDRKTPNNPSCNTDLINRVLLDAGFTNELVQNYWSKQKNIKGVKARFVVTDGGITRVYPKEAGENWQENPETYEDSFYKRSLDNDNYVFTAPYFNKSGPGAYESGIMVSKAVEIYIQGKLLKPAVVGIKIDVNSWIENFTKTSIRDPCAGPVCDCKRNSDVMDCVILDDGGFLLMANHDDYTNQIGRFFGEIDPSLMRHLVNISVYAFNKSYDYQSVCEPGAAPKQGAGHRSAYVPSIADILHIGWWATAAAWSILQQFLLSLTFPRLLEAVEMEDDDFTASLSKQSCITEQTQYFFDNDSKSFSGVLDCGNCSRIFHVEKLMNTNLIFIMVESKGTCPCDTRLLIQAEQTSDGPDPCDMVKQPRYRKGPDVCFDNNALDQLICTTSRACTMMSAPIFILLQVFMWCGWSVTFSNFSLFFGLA
Experiment: Radioligand binding assay using [^3 H]gabapentin and the α2 δ subunit derived from porcine brain tissue
Conditions: Table 1, [^3 H]gabapentin
# IC50 per record follows
Observation Type: IC50 (nM)

* NCC1(CC(=O)O)C2CCCC1CCC2 (centres unmarked) | 47
* NCC1(CC(=O)O)CC2CCC1C2 (racemic) | 103
